target of assay: SNX27, Q96L92
assay name: holdup assay
Set-up: key: below the threshold = too weak to quantify, mostly under pKd 3.1 to 4
protocol conditions: plain residues with an end cap or a label only (N-terminal biotin on a linker: ado-ado)
reported metric: pKd
Give bare numbers.

These solved cases illustrate the format of a correct answer.
YYKRPVQEWV [MMP24, Q9Y5R2] = 4.2
PPYRHRNTVV [ERBB4, Q15303] = 4.42
VKPQVSESKL [ACOT8, O14734] = 5.34
AKPSRISTVV [IQSEC2, Q5JU85] = 3.98
PRAEAEDSFL [PDGFRB, P09619] = 4.71

Hey, can you go through the list below and give me pKd for every item?
1. LPHPHSTTRV [NLGN2, Q8NFZ4]
2. GNSVLKSTQF [SLC22A12, Q96S37]
3. RRRESYSTTV [EVI5, O60447]
4. GSGAVEMESV [AQP6, Q13520]
5. MLSKQSESAI [FLVCR1, Q9Y5Y0]

1: 5.41; 2: 4.95; 3: 4.79; 4: 3.7; 5: 4.4

Please report pKd for every entry that follows.
1. QPCFNKLFPL [LPXN, O60711]
2. QGPVETESVV [SLC45A4, Q5BKX6]
3. SGSLKLMTTV [DACT1, Q9NYF0]

3.75
5.73
4.35
